# credit: PubChem BioAssay (NCI)

system: IGROV1 ovarian; assay: NCI-60 one-dose screen, 48 h; settings: 10 µM unless noted
This is part of a sample that, as a whole, favours compounds with a hit. Of some 83,000 tested, about 20% had one in any assay. Active and inactive are the calls of the source. Rule for the calls: active = growth percent below 10; inactive = the rest.
Hello, when you answer, please use one of the following outcomes: yes (1) = active, no (0) = inactive

Returns: the outcome recorded for COc1ccc2c(c1)CC[C@@H]1[C@@H]2CC[C@]2(C)C3C(=CC(COC(C)=O)C4C(=O)N(c5ccc(Cl)cc5)C(=O)C43)C[C@@H]12 (stereo partly specified) in this assay.
no (0)

Returns: the outcome recorded for CCOC(=O)c1cnn(CC(C)O)c1NC(=O)NCc1cccc(F)c1 (stereo unspecified) in this assay.
no (0)

Returns: the outcome recorded for CCCCO[C@@H]1C=C2[C@H]3CC(C)(C)C(=O)C[C@]3(C(=O)O[C@@H]3O[C@H](CO[C@@H]4O[C@H](CO)[C@@H](OC5OC(C)C(O)C(O)C5O)[C@H](O)[C@H]4O)[C@@H](O)[C@H](O)[C@H]3O)CC[C@@]2(C)[C@]2(C)CC[C@H]3C(C)(C)C(=O)CC[C@]3(C)[C@@H]12 (stereo partly specified) in this assay.
no (0)

Returns: the outcome recorded for `COc1cc(C=C2C(=O)NC(=S)NC2=O)cc(CN2CCCC2)c1O` in this assay.
no (0)

Returns: the outcome recorded for `O=S(=O)(Nc1cc(Sc2nc3ccccc3s2)c(O)c2ccccc12)c1ccc2ccccc2c1` in this assay.
no (0)

Returns: the outcome recorded for `CCCCCCCCn1ccc2cc(NC(=O)CN=[N+]=[N-])ccc21` in this assay.
no (0)

Returns: the outcome recorded for `Cc1ccc(S(=O)(=O)c2nc(-c3ccccc3)oc2SCC(N)=O)cc1` in this assay.
no (0)

Returns: the outcome recorded for `CCOc1ccc(NC(=O)Nc2ccc(OCC)cc2)cc1` in this assay.
no (0)

Returns: the outcome recorded for `CC[C@H](Nc1nc(N)nc(C)c1C#N)c1nc2cccc(CN(C)c3ncc(C(=O)NO)cn3)c2c(=O)n1-c1ccccc1` in this assay.
yes (1)

Returns: the outcome recorded for `CCOC(=O)NC(=S)n1oc(=O)c2ccccc21` in this assay.
no (0)

Returns: the outcome recorded for `CCOC(=O)CNC1=C(Cl)C(=O)N(Cc2ccc(Cl)cc2)C1=O` in this assay.
no (0)

Returns: the outcome recorded for Cc1cc(C)c2c(c1)N(C)c1ncnc(-n3c(C)nc4cc(C)ccc43)c1CC2C (stereo unspecified) in this assay.
no (0)

Returns: the outcome recorded for `COC(=O)/C=C1/SC(=Nc2ccc(F)cc2)N(CCc2c[nH]c3ccc(O)cc23)C1=O` in this assay.
no (0)

Returns: the outcome recorded for OC1CSSC1Cn1cnc2c(Nc3ccc(OCc4cccc(F)c4)c(Cl)c3)ncnc21 (stereo unspecified) in this assay.
no (0)

Returns: the outcome recorded for `CCCCCCCCn1ccc2cc(NC(=O)CN3CCN(c4cc(C)nc(Cl)n4)CC3)ccc21` in this assay.
no (0)

Returns: the outcome recorded for CS(=O)/C(C#N)=C\C=C\c1cccc(Cl)c1 (stereo unspecified) in this assay.
no (0)

Returns: the outcome recorded for `O=C(Nc1cccnc1Nc1ccc(Cl)cc1)c1cn(Cc2cccc(Oc3ccccc3)c2)nn1` in this assay.
no (0)

Returns: the outcome recorded for `Fc1cccc(-c2nc(-c3c[nH]c4ncccc34)cs2)c1` in this assay.
no (0)

Returns: the outcome recorded for `COc1ccc(Oc2ccc(/C=C/C(=O)c3cc4ccccc4oc3=O)cc2)cc1` in this assay.
no (0)

Returns: the outcome recorded for `O=C(N/N=C/c1ccc(Cl)cc1)c1ccc(NC(=O)c2ccccn2)cc1` in this assay.
no (0)

Returns: the outcome recorded for CC(O)Cc1c[nH]c(=O)[nH]c1=O (stereo unspecified) in this assay.
no (0)

Returns: the outcome recorded for Nc1cccc(-c2ccc(COc3ccc(CC4SC(=O)NC4=O)cc3)cc2)c1 (stereo unspecified) in this assay.
no (0)

Returns: the outcome recorded for `CC(=O)c1ccc(-n2cc(CN3CCN(c4cc5c(cc4F)c(=O)c(C(=O)O)cn5C4CC4)CC3)nn2)cc1` in this assay.
no (0)

Returns: the outcome recorded for `C=C(C)[C@@H]1CC[C@]2(C(=O)N3CCN(C)CC3)CC[C@]3(C)[C@H](CC[C@@H]4[C@@](C)(CCC(=O)O)[C@H](C(=C)C)CC[C@]43C)[C@@H]12` in this assay.
no (0)

Returns: the outcome recorded for `O=S(=O)(N=C1C(Cl)=C(Cl)C(=NS(=O)(=O)c2ccccc2)C(Cl)=C1Cl)c1ccccc1` in this assay.
no (0)

Returns: the outcome recorded for CCCC(=O)NC(c1ccc2c(c1)OCO2)c1cc(Cl)c2cccnc2c1O (stereo unspecified) in this assay.
no (0)

Returns: the outcome recorded for `C=C1C(=O)O[C@H]2[C@H]1CC/C(COC(=O)NCc1ccc(Cn3c(=O)sn(-c4ccc(I)cc4)c3=O)cc1)=C\CC[C@@]1(C)O[C@@H]21` in this assay.
no (0)

Returns: the outcome recorded for C=C1C(=O)O[C@@H]2C3C(=C(C)CC[C@@H]12)CC1O[C@]13C (stereo partly specified) in this assay.
no (0)

Returns: the outcome recorded for `Cc1cc(C(=O)CCCC(=O)c2cc(C)c(O)c(C)c2)cc(C)c1O` in this assay.
no (0)

Returns: the outcome recorded for `O=C1NC(=O)C(c2coc3cc(Br)ccc23)=C1c1c[nH]c2ccccc12` in this assay.
no (0)

Returns: the outcome recorded for `COc1ccc(C(=O)/C=C/c2ccccc2)cc1S(N)(=O)=O` in this assay.
no (0)

Returns: the outcome recorded for `O=c1oc2ccccc2cc1-c1nn(-c2ccccc2)cc1-c1nn[nH]n1` in this assay.
no (0)

Returns: the outcome recorded for `CN(C)C1CN(C(=O)c2cc(-c3ccc4ncnc(N5CCc6cc(F)c(Cl)cc65)c4c3)cnc2N)C1` in this assay.
yes (1)

Returns: the outcome recorded for N#CC1=C(N)Oc2c(sc3c(F)cccc23)C1c1ccc([N+](=O)[O-])cc1 (stereo unspecified) in this assay.
yes (1)

Returns: the outcome recorded for COC1C(O)CC(OC2CC(OC3CC(O[C@@H]4C(=O)c5c(cc6cc(OC7CC(OC8CC(O)C(O)C(C)O8)C(O)C(C)O7)c(C)c(O)c6c5O)CC4[C@H](OC)[C@@H](O)C(C)=O)OC(C)C3O)OC(C)C2O)OC1C (stereo partly specified) in this assay.
no (0)

Returns: the outcome recorded for `c1cc(OCCCCCOc2cccc(-c3nc4ccccc4[nH]3)c2)cc(-c2nc3ccccc3[nH]2)c1` in this assay.
no (0)
